Cited source: ChEMBL document CHEMBL3044572

Test system: Klebsiella pneumoniae
Test: Antimicrobial activity against Klebsiella pneumoniae MTCC 109 by agar streak dilution method
Type: functional
Measured MIC, listed per entry.
Observable: MIC (µg/mL)

> print(dat)
                         compound.structure  observable  reported.value
1  COc1ccc(CN2CCN(c3nc(Nc4ccc(C#N)c(C(F)(F)F)c4)nc(Oc4ncnc5ccccc45)n3)CC2)c(OC)c1OC         MIC            6.25
2  CC(=O)N1CCN(c2nc(Nc3ccc(C#N)c(C(F)(F)F)c3)nc(Oc3ncnc4ccccc34)n2)CC1         MIC            12.5
3  N#Cc1ccc(Nc2nc(Oc3ncnc4ccccc34)nc(N3CCN(c4ncccn4)CC3)n2)cc1C(F)(F)F         MIC             100
4  N#Cc1ccc(Nc2nc(Oc3ncnc4ccccc34)nc(N3CCN(c4ccccc4F)CC3)n2)cc1C(F)(F)F         MIC              25

====

Tested on: Aspergillus fumigatus
Assay: Antimicrobial activity against Aspergillus fumigatus MTCC 343 by paper-disk diffusion method
Type: functional
Entries annotated with measured inhibition zone (IZ)
Observable: inhibition zone (IZ) (mm)

> print(dat)
                                   compound            observable  unit.abbrev  reported.value
1  N#Cc1ccc(Nc2nc(Oc3ncnc4ccccc34)nc(N3CCN(c4ccccc4F)CC3)n2)cc1C(F)(F)F  inhibition zone (IZ)           mm              22
2  N#Cc1ccc(Nc2nc(Oc3ncnc4ccccc34)nc(N3CCN(C(c4ccccc4)c4ccccc4)CC3)n2)cc1C(F)(F)F  inhibition zone (IZ)           mm              23
3  CC(=O)N1CCN(c2nc(Nc3ccc(C#N)c(C(F)(F)F)c3)nc(Oc3ncnc4ccccc34)n2)CC1  inhibition zone (IZ)           mm              24
4  COc1ccc(CN2CCN(c3nc(Nc4ccc(C#N)c(C(F)(F)F)c4)nc(Oc4ncnc5ccccc45)n3)CC2)c(OC)c1OC  inhibition zone (IZ)           mm              25
5  N#Cc1ccc(Nc2nc(Oc3ncnc4ccccc34)nc(N3CCN(c4cccc(C(F)(F)F)c4)CC3)n2)cc1C(F)(F)F  inhibition zone (IZ)           mm              24
6  N#Cc1ccc(Nc2nc(Oc3ncnc4ccccc34)nc(N3CCN(C(c4ccccc4)c4ccc(Cl)cc4)CC3)n2)cc1C(F)(F)F (stereo not drawn)  inhibition zone (IZ)           mm              24
7  N#Cc1ccc(Nc2nc(Oc3ncnc4ccccc34)nc(N3CCN(c4cccc(Cl)c4Cl)CC3)n2)cc1C(F)(F)F  inhibition zone (IZ)           mm              23
8  N#Cc1ccc(Nc2nc(Oc3ncnc4ccccc34)nc(N3CCOCC3)n2)cc1C(F)(F)F  inhibition zone (IZ)           mm              21

====

Tested on: Aspergillus fumigatus
Experiment: Antimicrobial activity against Aspergillus fumigatus MTCC 343 by agar streak dilution method
Format: functional
Overview of reported MIC across a group of compounds:
Observable: MIC (µg/mL)

> print(dat)
                                    compound                    tgt  observable  unit.abbrev  reported.value
 1  N#Cc1ccc(Nc2nc(Oc3ncnc4ccccc34)nc(N3CCC(Cc4ccccc4)CC3)n2)cc1C(F)(F)F  Aspergillus fumigatus         MIC        µg/mL             100
 2  N#Cc1ccc(Nc2nc(Oc3ncnc4ccccc34)nc(N3CCN(c4ccccc4F)CC3)n2)cc1C(F)(F)F  Aspergillus fumigatus         MIC        µg/mL              25
 3  CC(=O)N1CCN(c2nc(Nc3ccc(C#N)c(C(F)(F)F)c3)nc(Oc3ncnc4ccccc34)n2)CC1  Aspergillus fumigatus         MIC        µg/mL              25
 4  CC(C)N1CCN(c2nc(Nc3ccc(C#N)c(C(F)(F)F)c3)nc(Oc3ncnc4ccccc34)n2)CC1  Aspergillus fumigatus         MIC        µg/mL              50
 5  N#Cc1ccc(Nc2nc(Oc3ncnc4ccccc34)nc(N3CCN(c4ccc(F)cc4)CC3)n2)cc1C(F)(F)F  Aspergillus fumigatus         MIC        µg/mL            12.5
 6  CC1CC(C)CN(c2nc(Nc3ccc(C#N)c(C(F)(F)F)c3)nc(Oc3ncnc4ccccc34)n2)C1 (centres undefined)  Aspergillus fumigatus         MIC        µg/mL              25
 7  COc1ccc(N2CCN(c3nc(Nc4ccc(C#N)c(C(F)(F)F)c4)nc(Oc4ncnc5ccccc45)n3)CC2)cc1  Aspergillus fumigatus         MIC        µg/mL            6.25
 8  N#Cc1ccc(Nc2nc(Oc3ncnc4ccccc34)nc(N3CCN(C(c4ccccc4)c4ccc(Cl)cc4)CC3)n2)cc1C(F)(F)F (centres undefined)  Aspergillus fumigatus         MIC        µg/mL            12.5
 9  N#Cc1ccc(Nc2nc(Oc3ncnc4ccccc34)nc(N3CCN(c4cccc(C(F)(F)F)c4)CC3)n2)cc1C(F)(F)F  Aspergillus fumigatus         MIC        µg/mL            12.5
10  N#Cc1ccc(Nc2nc(Oc3ncnc4ccccc34)nc(N3CCN(c4ccccc4Cl)CC3)n2)cc1C(F)(F)F  Aspergillus fumigatus         MIC        µg/mL            12.5
11  N#Cc1ccc(Nc2nc(Oc3ncnc4ccccc34)nc(N3CCN(C(c4ccccc4)c4ccccc4)CC3)n2)cc1C(F)(F)F  Aspergillus fumigatus         MIC        µg/mL             100
12  N#Cc1ccc(Nc2nc(Oc3ncnc4ccccc34)nc(N3CCOCC3)n2)cc1C(F)(F)F  Aspergillus fumigatus         MIC        µg/mL             100
13  N#Cc1ccc(Nc2nc(Oc3ncnc4ccccc34)nc(N3CCN(c4cccc(Cl)c4Cl)CC3)n2)cc1C(F)(F)F  Aspergillus fumigatus         MIC        µg/mL              25
14  COc1ccc(CN2CCN(c3nc(Nc4ccc(C#N)c(C(F)(F)F)c4)nc(Oc4ncnc5ccccc45)n3)CC2)c(OC)c1OC  Aspergillus fumigatus         MIC        µg/mL            6.25

====

Tested on: Aspergillus fumigatus
Experiment: Antimicrobial activity against Aspergillus fumigatus MTCC 343 by paper-disk diffusion method
Type: functional
The following compounds are shown together with reported inhibition zone (IZ) values.
Observable: inhibition zone (IZ) (mm)

> print(dat)
                                   compound  reported.value
1  COc1ccc(N2CCN(c3nc(Nc4ccc(C#N)c(C(F)(F)F)c4)nc(Oc4ncnc5ccccc45)n3)CC2)cc1              25
2  CC1CC(C)CN(c2nc(Nc3ccc(C#N)c(C(F)(F)F)c3)nc(Oc3ncnc4ccccc34)n2)C1 (configuration not stated)              23
3  N#Cc1ccc(Nc2nc(Oc3ncnc4ccccc34)nc(N3CCN(c4ccc(F)cc4)CC3)n2)cc1C(F)(F)F              24
4  CC(C)N1CCN(c2nc(Nc3ccc(C#N)c(C(F)(F)F)c3)nc(Oc3ncnc4ccccc34)n2)CC1              23
5  N#Cc1ccc(Nc2nc(Oc3ncnc4ccccc34)nc(N3CCN(c4ccccc4Cl)CC3)n2)cc1C(F)(F)F              24
6  O=C(O)c1cn(C2CC2)c2cc(N3CCNCC3)c(F)cc2c1=O              29
7  N#Cc1ccc(Nc2nc(Oc3ncnc4ccccc34)nc(N3CCC(Cc4ccccc4)CC3)n2)cc1C(F)(F)F              21

====

Tested on: Klebsiella pneumoniae
Test: Antimicrobial activity against Klebsiella pneumoniae MTCC 109 by agar streak dilution method
Type: functional
Observable: MIC (µg/mL)

> print(dat)
                                    compound  unit.abbrev  reported.value
 1  N#Cc1ccc(Nc2nc(Oc3ncnc4ccccc34)nc(N3CCN(c4ccc(F)cc4)CC3)n2)cc1C(F)(F)F        µg/mL              25
 2  COc1ccc(N2CCN(c3nc(Nc4ccc(C#N)c(C(F)(F)F)c4)nc(Oc4ncnc5ccccc45)n3)CC2)cc1        µg/mL            12.5
 3  N#Cc1ccc(Nc2nc(Oc3ncnc4ccccc34)nc(N3CCN(c4cccc(Cl)c4Cl)CC3)n2)cc1C(F)(F)F        µg/mL              50
 4  CCN1CCN(c2nc(Nc3ccc(C#N)c(C(F)(F)F)c3)nc(Oc3ncnc4ccccc34)n2)CC1        µg/mL             100
 5  N#Cc1ccc(Nc2nc(Oc3ncnc4ccccc34)nc(N3CCN(c4ccccc4Cl)CC3)n2)cc1C(F)(F)F        µg/mL             100
 6  N#Cc1ccc(Nc2nc(Oc3ncnc4ccccc34)nc(N3CCN(c4cccc(C(F)(F)F)c4)CC3)n2)cc1C(F)(F)F        µg/mL            6.25
 7  N#Cc1ccc(Nc2nc(Oc3ncnc4ccccc34)nc(N3CCC(Cc4ccccc4)CC3)n2)cc1C(F)(F)F        µg/mL             100
 8  N#Cc1ccc(Nc2nc(Oc3ncnc4ccccc34)nc(N3CCN(Cc4ccccc4)CC3)n2)cc1C(F)(F)F        µg/mL             100
 9  CC1CC(C)CN(c2nc(Nc3ccc(C#N)c(C(F)(F)F)c3)nc(Oc3ncnc4ccccc34)n2)C1 (stereo unspecified)        µg/mL            6.25
10  N#Cc1ccc(Nc2nc(Oc3ncnc4ccccc34)nc(N3CCN(C(c4ccccc4)c4ccc(Cl)cc4)CC3)n2)cc1C(F)(F)F (stereo unspecified)        µg/mL              25
11  CC(C)N1CCN(c2nc(Nc3ccc(C#N)c(C(F)(F)F)c3)nc(Oc3ncnc4ccccc34)n2)CC1        µg/mL              50
